assay: Pharmacokinetics in healthy mice; assay type: in vivo; settings: Swiss albino, mouse, plasma, intravenous, single dose, formulations 5 mg/kg b.w., free 2C 1 mg/kg b.w.
endpoint.name: Cmax (ng/mL)
Numbers only here, please. The scale is ng/mL.

Which Cmax is listed for `O=C(NNC(=S)Nc1ccc(Cl)cc1)c1ccncc1` ?
1400

* * *

test: Pharmacokinetics in healthy mice; assay type: in vivo; conditions: Swiss albino, mouse, plasma, intravenous, single dose, formulations 5 mg/kg b.w., free 2C 1 mg/kg b.w., read-out: CL (plasma clearance) (converted)
endpoint.name: clearance (mL/min)
The reply should contain only the number, in mL/min.

I'd like to know its clearance. The molecule in question is `O=C(NNC(=S)Nc1ccc(Cl)cc1)c1ccncc1`
1.28

meta.source: paper PMC7998974
